# SUBJECT OF TEST: Fibroblast growth factor 2 (Homo sapiens)
# ASSAY OVERVIEW: basic fibroblast growth factor binding to printed compounds – biochemical, small-molecule microarray, 635/667 nm fluorescence, primary screen (AID 1133)
# SETTINGS: FGF2, fluorescence 635/667, higher = more signal
Classify on composite z-score using low interval: < 0.2; middle interval: ≥ 0.2 and < 0.8; high interval: ≥ 0.8

INSERT INTO results (compound, subject_of_test, cat) VALUES
  ('CC(C)NC(=O)[C@@]1(Cc2ccccc2I)c2ccccc2C(=O)N(Cc2ccccc2Cl)[C@H]1c1ccc(CO)cc1', 'Fibroblast growth factor 2 (Homo sapiens)', 'middle interval'),
  ('C[N+](C)(C)CCCC[C@@H]1NC(=O)[C@@H]2C[C@H](C(=O)NCCCCCCNC(=O)CS)[C@H](c3ccc(O)cc3)N2C1=O', 'Fibroblast growth factor 2 (Homo sapiens)', 'low interval'),
  ('NCCCCCCNC(=O)[C@H]1C[C@H]2C(=O)N[C@@H](Cc3ccccc3)C(=O)N2[C@H]1c1cccc(OCCO)c1', 'Fibroblast growth factor 2 (Homo sapiens)', 'low interval'),
  ('COC(=O)[C@]1(CCC(=O)OC(C)(C)C)N=C(c2ccc(OCCCO)cc2)O[C@@H]1c1ccccc1', 'Fibroblast growth factor 2 (Homo sapiens)', 'low interval'),
  ('O=C1OCCC/C=C\[C@H]2OC34C=CCN(c5ccc6ccccc6c5)C(=O)[C@H]3N(CCCCCO)C(=O)[C@@H]4C12 (some centres undefined)', 'Fibroblast growth factor 2 (Homo sapiens)', 'low interval'),
  ('Cc1ccc(C2C3C(=O)CC4C(=O)N(c5ccccc5)C(=O)C4C3CN2S(=O)(=O)c2ccc(C)cc2)cc1 (centres undefined)', 'Fibroblast growth factor 2 (Homo sapiens)', 'middle interval'),
  ('COCCOC(=O)N1C(=O)[C@@]2(c3cc(C#Cc4ccc(OC)cc4)ccc31)[C@H](c1ccc(O)cc1)N1[C@H](c3ccccc3)[C@H](c3ccccc3)OC(=O)[C@H]1[C@@H]2C(=O)Nc1nc2ccccc2s1', 'Fibroblast growth factor 2 (Homo sapiens)', 'middle interval'),
  ('COc1ccc(C(O)C2C=CC3C(=O)N(C)C(=O)C3N2N(c2ccccc2)c2ccccc2)c2ccccc12 (centres undefined)', 'Fibroblast growth factor 2 (Homo sapiens)', 'middle interval'),
  ('CO[C@H]1O[C@H](CO)[C@@H](OC(=O)Nc2ccc(Oc3ccccc3)cc2)[C@H](OC(=O)Nc2ccc3c(c2)OCO3)[C@@H]1OC(=O)Nc1ccc2c(c1)OCO2', 'Fibroblast growth factor 2 (Homo sapiens)', 'high interval'),
  ('O=C1OCCC=C[C@H]2OC34C=CCN(Cn5nnc6ccccc65)C(=O)[C@H]3N(CCO)C(=O)[C@@H]4C12 (some centres undefined)', 'Fibroblast growth factor 2 (Homo sapiens)', 'low interval'),
  ('COc1ccc([Si](C)(C)[C@@H]2[C@@H](CC(=O)N3CCC[C@H]3CO)O[C@]3(C(=O)N(Cc4cccc(I)c4)c4ccccc43)[C@H]2C)cc1', 'Fibroblast growth factor 2 (Homo sapiens)', 'high interval'),
  ('COCCOC(=O)N1C(=O)[C@@]2(c3cc(C#CCCO)ccc31)[C@H](c1ccc(OCCO)cc1)N1[C@H](c3ccccc3)[C@H](c3ccccc3)OC(=O)[C@H]1[C@@H]2C(N)=O', 'Fibroblast growth factor 2 (Homo sapiens)', 'middle interval'),
  ('CC(C)(C)OC(=O)CC[C@]1(C(=O)NCCN2CCOCC2)COC(c2ccc(OCCCO)cc2)=N1', 'Fibroblast growth factor 2 (Homo sapiens)', 'high interval');
